- TEST_SUMMARY: solvent given as SMILES
- CONDITION_DETAILS: in CCC(C)CC
Quick list: fluorescence lifetime per entry.
# number only, unit ns dropped from output

Examples from the recorded data:
COMPOUND	fluorescence lifetime (ns)
CCN(CC)c1ccc2cc(-c3nc4ccccc4s3)c(=O)oc2c1	2.38
COC(=O)C(Cc1ccc2oc(-c3ccc(N(C)C)cc3)nc2c1)NC(=O)OC(C)(C)C (stereo unspecified)	1
COC(=O)C(Cc1ccc2oc(-c3ccc4c(c3)c3ccccc3n4-c3ccccc3)nc2c1)NC(=O)OC(C)(C)C (stereo unspecified)	2.25

Challenge: Given the entry COC(=O)C(Cc1ccc2oc(-c3ccc(Nc4ccccc4)cc3)nc2c1)NC(=O)OC(C)(C)C (stereo unspecified) , report its measured fluorescence lifetime.
Response given: 1.03

Challenge: Can you look up the measured fluorescence lifetime of CCNc1ccc2c(C(F)(F)F)cc(=O)oc2c1 for me?
Response given: 3.39

Challenge: Given COC(=O)C(Cc1ccc2oc(-c3ccc(N(C)c4ccccc4)cc3)nc2c1)NC(=O)OC(C)(C)C (stereo unspecified) , state its recorded fluorescence lifetime.
Response given: 1.67

----------
- TEST_SUMMARY: solvent given as SMILES
- CONDITION_DETAILS: in CCCCCC
Listing of recorded fluorescence lifetime by entry.
Respond numerically; units are ns and should not be typed.

Some compounds with known fluorescence lifetime results, for comparison:
CCN(CC)c1ccc2cc(-c3nc4ccccc4s3)c(=O)oc2c1 2.37
CC1=CC(C)=[N+]2C1=C(c1ccccc1)c1c(C)cc(C)n1[B-]2(F)F 3.37
CC(C)(C)c1ccc2c(c1)c1cc3c4cc(C(C)(C)C)ccc4c4c5c6ccc(C(C)(C)C)cc6c6cc7c8cc(C(C)(C)C)ccc8c8c2c1c(c34)c(c78)c65 0.61

Please find the next compound below.
Challenge: Any idea what its fluorescence lifetime is? The compound is COc1ccc(N(c2ccc(OC)cc2)c2ccc(-c3ccc4c(c3)C(=O)c3ccccc3C4=O)cc2)cc1
Response given: 7.04

----------
# log10 of fluorescence lifetime values compiled below
- TEST_SUMMARY: solvent given as SMILES
- CONDITION_DETAILS: in C1COCCO1
On a log10 scale: recorded fluorescence lifetime, unit ns.

Solved cases below.
COMPOUND	VALUE_MEASURED
CCC12C(=C3C(=C4c5ccc(-c6ccc(C(C)=O)cc6)cc5S(=O)(=O)C41CC)C(F)(F)C(F)(F)C3(F)F)c1ccc(-c3ccc(C(C)=O)cc3)cc1S2(=O)=O (stereo not given)	0.45
CN(C)c1ccc2nc(/C=C/c3cc4c5c(c3)CCCN5CCC4)c(=O)oc2c1	0.46
Cc1cccc(Nc2ccccc2C(=O)O)c1C	0.38
COc1cc(OC)cc(-c2ccc(-c3ccc(C#N)s3)s2)c1	-0.64
CN(C)c1ccc2nc(/C=C/c3ccccc3)c(=O)oc2c1	0.55

Challenge: Which log10 of fluorescence lifetime reading was recorded for the compound Nc1cc(N)cc(-c2nc3ccccc3s2)c1 ?
Response given: 0.61

----------
- TEST_SUMMARY: solvent given as SMILES
- CONDITION_DETAILS: in OCC(F)(F)F
Recorded log10(fluorescence lifetime), one value per entry.
Annotation: log10 of fluorescence lifetime, ns basis.

Take a look at these entries with their results.
CCC1=C(C)C2=Cc3c(I)c(I)c(I)n3[B-](F)(F)[N+]2=C1C -0.74
C#CCNC1=C2C(C)=CC(C)=[N+]2[B-](F)(F)n2c(C)cc(C)c21 -0.12
Cc1ccc(C2=C3C=C(I)C=[N+]3[B-](F)(F)n3cccc32)cc1 -1.16

Challenge: Would you mind telling me what log10(fluorescence lifetime) value was observed for Cc1ccc(C2=C3C=C(I)C=[N+]3[B-](F)(F)n3cc(I)cc32)cc1 ?
Response given: -1.14

Challenge: Looking for the measured log10(fluorescence lifetime) of CC1=C(C(C)(C)C)C(C)=[N+]2C1=C(C)c1c(C)c(C(C)(C)C)c(C)n1[B-]2(F)F , can you help?
Response given: 0.67

Challenge: Consider the compound shown here: CNC1=C2C=CC=[N+]2[B-](F)(F)n2cccc21 What is its recorded log10(fluorescence lifetime)?
Response given: 0.15

Origin of the recorded values: the Deep4Chem optical property database
